Test target: T1, OspA ST1 (B. burgdorferi B31 allele) on the B. burgdorferi HB19-R1 reporter strain (Borrelia burgdorferi B31 (OspA ST1), UniProt P0CL66)
T1 construct: OspA of B. burgdorferi B31 (ST1), lipoprotein on the cell surface; a second wild type ST1 plasmid with silent mutations was used beside the residue 107 mutants; same protein; also called HB19-R1 OspAST1 reporter; source: B. burgdorferi HB19-R1 (lacks ospA), reporter plasmid pGW217, native ospAB promoter, on live cells
T1 sequence (P0CL66 17-273): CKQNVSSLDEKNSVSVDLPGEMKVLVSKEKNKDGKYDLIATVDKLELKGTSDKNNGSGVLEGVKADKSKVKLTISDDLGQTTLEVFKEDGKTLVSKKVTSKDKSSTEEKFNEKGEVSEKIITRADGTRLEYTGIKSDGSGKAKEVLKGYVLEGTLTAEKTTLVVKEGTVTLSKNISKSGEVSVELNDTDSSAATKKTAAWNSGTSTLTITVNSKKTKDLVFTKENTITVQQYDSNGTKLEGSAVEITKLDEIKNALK
Procedure details: flow cytometry on cells; live B. burgdorferi HB19-R1 reporter strains expressing OspA ST1-7, 10 µg/ml mAb, Alexa 647-labeled goat anti-human IgG
Measurement parameters: one partner purified

| Binder | MFI |
| --- | --- |
| 857-2, recombinant human monoclonal IgG1 (antibody, V domains shown, source: Expi293 cells, transiently transfected with VH and VL plasmids, purified (Protein A)) VH: EVQLVQSGEEVKKPGESLKISCKGSGYKFSSYWIGWVRQMPGKGLEWMGIIFPGDSDKRYSPSFQGQVTISADKSISTVYLQWSSLKASDTAMYYCARHITTHTYRGFFDFWGQGTLVTVSS VL: AIQLTQSPSSLSASVGDRVTITCRASQDISSALAWYQQKPGKAPKLLIYDVSSLESGVPSRFSGSGSGTDFTLTISSLQPEDFATYYCQQFNGYPHRLTFGGGTKVEIK | > 4000 |
| 221-20, recombinant human monoclonal IgG1 (antibody, V domains shown, source: Expi293 cells, transiently transfected with VH and VL plasmids, purified (Protein A)) VH: EIQLVQSGTEVKKPGESLRISCRVSGYSFTNYWVAWVRQMPGKGLEWMGIIWPGDSDTRYSPSFQGQVTISADKSINTAYLQWSSLKASDTAVYYCARHLGIDYFFGLDVWGQGTTVTVSS VL: EIVLTQSPATLSLSPGERATLSCRASQSVSSYLAWYQQKPGQAPRLLIYDASSRATGIPARFSGSGSGTDFTLTISSLEPEDFAVYYCQHLSNWYTFGQGTNLEIK | > 4000 |
| LA-2 IgG (antibody, V domains shown, also called OspA ST 1-specific IgG mAb LA-2) VH: QIQLVQSGPELKKPGETVKISCKASGYTFTDYSMYWVKQAPGKGLKRMGWINTETGEPTYADDFKGRFALSLDTSASTAYLHISNLKNEDTATYFCARGLDSWGQGTSVTVSS VL: DIQMTQSPSSLSATLGGKVTITCKASQDINKYIAWYQHKPGKGPRLLIHYTSTLQPGNPSRFSGSGSGRDYSFSISNLEAEDIAIYYCLQYDNLQRTFGGGTKVEIK | > 7000 |
| 221-5, recombinant human monoclonal IgG1 (antibody, V domains shown, source: Expi293 cells, transiently transfected with VH and VL plasmids, purified (Protein A)) VH: EVQLVQSGAEVKKPGESLKISCKGSGYSFTSYWIGWVRQMPGKGLEWMGIIYPGDSDTRYSPSFQGQVTISADKSISTAYLQWSSLKASDTAMYYCARHLGIDYFFGMDVWGQGTTVTVSS VL: EIVLTQSPATLSLSPGERATLSCRASQSVSSYLAWYQQKPGQAPRLLIYDASTRDTGIPARFSGSGSGTDFTLTISSLEPEDFAVYYCQHHSNWYTFGQGTKLEIK | > 4000 |
